- Tested on: HepG2-A16-CD81EGFP cells
- PROTOCOL_DETAILS: cells
- PROTOCOL_CONDITIONS: Homo sapiens, HepG2, read-out: HepG2 Tox% @ 50 uM rep1
MEASUREMENT_NAME: cytotoxicity at 50 µM (%)
Answer with a number only, understood to be in %.

Incoming: Sample O=C(Nc1nc(-c2ccccn2)cs1)c1ccccc1Br [MMV665909] — what was its cytotoxicity at 50 µM?
Outgoing: 79

Incoming: Sample COCCn1c(C)nc2ccccc2c1=O [MMV665904] — what was its cytotoxicity at 50 µM?
Outgoing: 1.26

Incoming: Sample O=C(NCC(c1ccsc1)N1CCCCCC1)c1ccc(C(F)(F)F)cc1 (centres unmarked) [MMV396672] — what was its cytotoxicity at 50 µM?
Outgoing: 98

Incoming: Sample Cc1cc(NCCN2CCCCC2)c2ccc3ccccc3c2n1 [MMV006203] — what was its cytotoxicity at 50 µM?
Outgoing: 93

Incoming: Sample O=C(NCc1ccco1)C1CCN(S(=O)(=O)c2ccc(Br)cc2)CC1 [MMV007430] — what was its cytotoxicity at 50 µM?
Outgoing: 28

Incoming: Sample Cc1ccc2cc3c(N)c4c(C)ccc(C)c4nc3nc2c1 [MMV666079] — what was its cytotoxicity at 50 µM?
Outgoing: 97

Incoming: Sample Cc1cc(NC(=O)c2ccc(-c3ccccc3)cc2)no1 [MMV018984] — what was its cytotoxicity at 50 µM?
Outgoing: -22

Incoming: Sample CC(C)(C)C(=O)Nc1ccc(C(=O)Nc2cccc(-c3nc4ccccc4[nH]3)c2)cc1 [MMV665879] — what was its cytotoxicity at 50 µM?
Outgoing: 99

Incoming: Sample CC1CC(C)CN(C(=O)c2ccc(Cl)cc2Cl)C1 (centres unmarked) [MMV001344] — what was its cytotoxicity at 50 µM?
Outgoing: 74

Incoming: Sample c1ccc(CNc2nc(Nc3ccccc3)nc3ccccc23)cc1 [MMV006169] — what was its cytotoxicity at 50 µM?
Outgoing: 101

Incoming: Sample CCOC(=O)c1cnc2c(CC)cccc2c1O [MMV498479] — what was its cytotoxicity at 50 µM?
Outgoing: -10

Incoming: Sample COc1cccc(C=Cc2nc(=O)c3ccccc3o2)c1OC [MMV666693] — what was its cytotoxicity at 50 µM?
Outgoing: -0.938

Incoming: Sample Clc1cc(Br)ccc1-c1ccc(CNCC2CCNCC2)o1 [MMV019918] — what was its cytotoxicity at 50 µM?
Outgoing: 97

Incoming: Sample COc1ccc(CCn2c(=N)c(C(=O)NCc3cccnc3)cc3c(=O)n4cccc(C)c4nc32)cc1 [MMV667488] — what was its cytotoxicity at 50 µM?
Outgoing: -0.0644

Incoming: Sample C=CCc1c(C)nc2ccccc2c1O [MMV006913] — what was its cytotoxicity at 50 µM?
Outgoing: -8

Incoming: Sample Cc1ccc(-c2nc3ccccc3o2)cc1NCc1cc(Cc2ccccc2)ccc1O [MMV020912] — what was its cytotoxicity at 50 µM?
Outgoing: 13

Incoming: Sample COc1cc(C(=O)Nc2nc3c(cc4c5c(cccc53)CC4)s2)cc(OC)c1OC [MMV396665] — what was its cytotoxicity at 50 µM?
Outgoing: 11

Incoming: Sample CC(C)OCc1cc(CN2CCN(c3cccc(Cl)c3)CC2)c(O)c2ncccc12 [MMV000788] — what was its cytotoxicity at 50 µM?
Outgoing: 99

Incoming: Sample CCOC(=O)c1cnc2ccc(OC)cc2c1Nc1ccc(N2CCN(C)CC2)cc1 [MMV000704] — what was its cytotoxicity at 50 µM?
Outgoing: 97

Incoming: Sample Cc1cc(C)c2nc(N3CCC(C(=O)NCCCN4CCC(N5CCCCC5)CC4)CC3)sc2c1 [MMV019780] — what was its cytotoxicity at 50 µM?
Outgoing: 98

Reference source: paper PMC4890880
